Test system: P. falciparum Dd2
Experiment: in vitro asexual P. falciparum imaging assay, Dd2 strain
Type: cell-based
Conditions: Plasmodium falciparum, DD2, 72 h; read-out: Dd2 IC50
Method: The antiplasmodial in vitro assay was performed as previously described.[13] […] Images were analysed as previously described,[13] and raw data normalized using the in-plate positive and negative controls to obtain percent inhibition, used to calculate IC50 values, through a four-parameter logistic curve fitting in Prism (GraphPad).
Overview of recorded IC50 for various compounds
# output: bare number, implied unit nM

Examples with answers:
I'd like to know its IC50. The compound in question is "CN(C)CCNC(=O)c1cc(NC(=O)c2cc(NC(=O)c3ccc(/C=C/c4ccc(N(C)C)cc4)nc3)cn2C)cn1C.O=C(O)C(F)(F)F"
53

I'd like to know its IC50. The compound in question is "Cn1cc(NC(=O)c2cc(NC(=O)c3ccc(NC(=O)c4ccc(F)cc4)cc3)cn2C)cc1C(=O)NCCC(=N)N.O=C(O)C(F)(F)F"
229

I'd like to know its IC50. The compound in question is "CC(C)CCc1sc(NC(=O)c2cc(NC(=O)c3cc(NC(=O)c4cccc(F)c4)cn3C)cn2C)nc1C(=O)NCCCN(C)C.O=C(O)C(F)(F)F"
207

I'd like to know its IC50. The compound in question is "COc1ccc(/C=C/c2ccc(C(=O)Nc3cc(C(=O)Nc4cc(C(=O)NCCC(=N)N)n(C)c4)n(C)c3)cc2)cc1.O=C(O)C(F)(F)F"
620

I'd like to know its IC50. The compound in question is "COc1cccc(/C=C/c2ccc(C(=O)Nc3cc(C(=O)Nc4cc(C(=O)NCCC(=N)N)n(C)c4)n(C)c3)cn2)c1.O=C(O)C(F)(F)F.O=C(O)C(F)(F)F"
202

I'd like to know its IC50. The compound in question is "CN(C)c1ccc(/C=C/c2ccc(C(=O)Nc3cc(C(=O)Nc4cc(C(=O)NCCN5CCOCC5)n(C)c4)n(C)c3)cn2)cc1.O=C(O)C(F)(F)F"
169

Continuing:
I'd like to know its IC50. The compound in question is "Cn1cc(NC(=O)c2cc(NC(=O)c3ccc(/C=C/c4ccc5nsnc5c4)cc3)cn2C)cc1C(=O)NCCN1CCOCC1.O=C(O)C(F)(F)F"
61.9

I'd like to know its IC50. The compound in question is "Cn1cc(NC(=O)c2cc(NC(=O)c3ccc(/C=C/c4cccc(F)c4)cc3)cn2C)cc1C(=O)NCCC(=N)N.O=C(O)C(F)(F)F"
1300

I'd like to know its IC50. The compound in question is COc1ccc(C[C@H](N)C(=O)N[C@H]2[C@@H](O)[C@H](n3cnc4c(N(C)C)ncnc43)O[C@@H]2CO)cc1 [Puromycin, puromycin, reference compound]
49.3

====

system: HEK293 cells; experiment: HEK293 cell viability (resazurin) assay; assay type: cell-based, Human; conditions: Homo sapiens, HEK293; 80 μM; 72 h
endpoint: inhibition at 80 µM
Kindly report the value followed by its unit.

Examples with answers:
Record "Cn1cc(NC(=O)c2cc(NC(=O)c3ccc(NC(=O)c4cccc(F)c4)cc3)cn2C)cc1C(=O)NCCC(=N)N.O=C(O)C(F)(F)F" : what is its inhibition at 80 µM with HEK293 cells?
92%

Record "Cn1cc(NC(=O)c2cc(NC(=O)c3ccc(/C=C/c4ccc5ccccc5c4)cc3)cn2C)cc1C(=O)NCCC(=N)N.O=C(O)C(F)(F)F" : what is its inhibition at 80 µM with HEK293 cells?
23%

Shifting focus to the compound that follows.
Record "Cn1cc(NC(=O)c2cc(NC(=O)c3ccc(/C=C/c4ccc(C(F)(F)F)cc4)cc3)cn2C)cc1C(=O)NCCN1CCOCC1.O=C(O)C(F)(F)F" : what is its inhibition at 80 µM with HEK293 cells?
80%
